Data provenance is PubChem BioAssay AID1553.

Test system: HeLa cells, 3H-mannose incorporation into glycoproteins
Assay: increase in 3H-mannose incorporation into HeLa proteins, late-stage follow-up, orthogonal assay for PMI inhibitor project, HeLa cells (AID 1553);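 further: 1 fold = DMSO treated HeLa control cells; higher fold signals phosphomannose isomerase inhibition routing mannose into glycosylation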
Conditions: fold increase; at 25 µM; stronger effect = higher value
Consider the following compounds; for each one, report its fold increase 3H incorporation.

These solved cases illustrate the format of a correct answer.
| compound | measuredOn | metric | reported |
| --- | --- | --- | --- |
| COC(=O)c1cccc(-n2sc3ccccc3c2=O)c1 | HeLa cells, 3H-mannose incorporation into glycoproteins | fold increase 3H incorporation | 1.5 |
| O=c1c2c([N+](=O)[O-])cc([N+](=O)[O-])cc2sn1-c1ccc(F)cc1 | HeLa cells, 3H-mannose incorporation into glycoproteins | fold increase 3H incorporation | 0.9 |
| Clc1nssc1=Nc1ccccc1 | HeLa cells, 3H-mannose incorporation into glycoproteins | fold increase 3H incorporation | 1.2 |

Kindly give each listed record's fold increase 3H incorporation.
1. O=c1c2ccccc2sn1-c1ccc(F)cc1
2. O=c1c2ccccc2sn1-c1ccccc1
3. Cc1cccc(-n2sc3ccccc3c2=O)c1
4. COc1ccc2c(=O)n(C3CCCC3)sc2c1
5. Cc1ccc(C)c(N2Cc3ccccc3C2=O)c1
6. O=[N+]([O-])c1ccc(N=c2ssnc2Cl)c2ccccc12

2.5
1.1
2
0.9
1.1
0.5

Kindly give each listed record's fold increase 3H incorporation.
1. Cc1ccnc(-n2sc3ccccc3c2=O)n1
2. O=c1c2ccccc2sn1-c1ccc2ccccc2c1
3. O=c1c2c([N+](=O)[O-])cc([N+](=O)[O-])cc2sn1-c1ccc(F)c(Cl)c1
4. Clc1ccc(N=c2ssnc2Cl)cc1Cl
5. O=c1c2ccc(F)cc2sn1-c1cc(Cl)ccc1Cl
6. Cc1ccc(C)c(-n2sc3ccccc3c2=O)c1
7. O=c1c2ccccc2sn1-c1cccc(Cl)c1

1: 0.9; 2: 1.6; 3: 0.9; 4: 0.1; 5: 1; 6: 1.4; 7: 3.4

Kindly give each listed record's fold increase 3H incorporation.
1. CN(C)c1ccc(N=c2ssnc2Cl)cc1
2. Clc1ccc(N=c2ssnc2Cl)cc1
3. CCSc1n[nH]c(=S)s1
4. CN(C)c1cccc(-n2sc3ccccc3c2=O)c1
5. COc1ccc(OC)c(N=c2ssnc2Cl)c1
6. Oc1ccc(N=c2ssnc2Cl)cc1
7. Cc1cccc(N=c2ssnc2Cl)c1

0.8
1.1
1
1.3
2.5
0.8
1.6

Kindly give each listed record's fold increase 3H incorporation.
1. O=c1c2ccccc2sn1-c1cc(S(=O)(=O)N2CCOCC2)ccc1N1CCOCC1
2. Cc1ccc(N=c2ssnc2Cl)nc1
3. COc1cc(N=c2ssnc2Cl)cc(OC)c1

0.8
1.2
1.1

----------
Tested on: HeLa cells, 3H-mannose incorporation into glycoproteins
Assay: increase in 3H-mannose incorporation into HeLa proteins, late-stage follow-up, orthogonal assay for PMI inhibitor project, HeLa cells (AID 1553);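 further: 1 fold = DMSO treated HeLa control cells; higher fold signals phosphomannose isomerase inhibition routing mannose into glycosylation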
Conditions: fold increase; at 25 µM; stronger effect = higher value
metric: fold increase 3H incorporation
One number for each entry.

These solved cases illustrate the format of a correct answer.
| compound | fold increase 3H incorporation |
| --- | --- |
| O=C(NCc1ccccc1)c1cccc(-n2sc3ccccc3c2=O)c1 | 1.2 |
| O=c1c2ccccc2sn1-c1ccc(Cl)cc1 | 3.4 |
| O=C1c2ccccc2SC1c1ccccc1 (stereo unspecified) | 2.1 |
| O=c1c2ccccc2sn1-c1cccc(C(F)(F)F)c1 | 1.2 |
| Nc1ccccc1N=c1ssnc1Cl | 0.9 |

Kindly give each listed record's fold increase 3H incorporation.
1. COc1ccc(-c2nc(=S)[nH][nH]2)cc1
2. O=C(O)c1ccccc1NS(=O)(=O)c1cccc(-n2sc3ccccc3c2=O)c1
3. O=c1c2ccccc2sn1-c1cc(S(=O)(=O)N2CCOCC2)ccc1N1CCCC1
4. Clc1nss/c1=N\c1nncs1
5. Clc1cccc(N=c2ssnc2Cl)c1
6. Cc1ccc(N=c2ssnc2Cl)cc1C

1
0.2
0.7
0.9
1.7
0.8

Kindly give each listed record's fold increase 3H incorporation.
1. FC(F)(F)c1ccc(N=c2ssnc2Cl)cc1
2. COc1ccc(N=c2ssnc2Cl)cc1OC
3. O=c1c2c([N+](=O)[O-])cc([N+](=O)[O-])cc2sn1-c1ccccc1F

[1.4, 0.3, 0.9]

Kindly give each listed record's fold increase 3H incorporation.
1. Clc1nssc1=Nc1ccc(Br)cc1
2. O=c1c2ccccc2sn1-c1ccc(Cl)c(S(=O)(=O)N2CCOCC2)c1

[3.6, 1]
